- Test system: Fibroblast
- testProtocol: Multiplex assay against human fibroblast
- Format: toxicity, cell-based
- conditionSummary: 12 h, 10 µM, compound concentration 10 uM, replicate 1
We use 20% as the dividing line for Population Mitochondria Different-Phenotype (%): on or above the line is MET, below is NOT MET.

# count of solved cases: 6
{"compound": "O=C(Nc1ccc(-c2ccnc(Nc3ccc(N4CCOCC4)cc3)n2)cc1)[C@@H]1CCCN1", "category": "MET"}
{"compound": "COC(=N)c1nc2ccc3ncnc(Nc4ccc(OC)cc4F)c3c2s1", "category": "NOT MET"}
{"compound": "Cc1ccc2nc(NCCN)c3ncc(C)n3c2c1.O=C(O)C(F)(F)F.O=C(O)C(F)(F)F", "category": "NOT MET"}
{"compound": "O=C(Cc1ccc(-c2ccc(OCCN3CCOCC3)cc2)cn1)NCc1ccccc1 [TIRBANIBULIN]", "category": "NOT MET"}
{"compound": "S=C(NCCCc1c[nH]cn1)NCCCN(Cc1ccc(Cl)c(Cl)c1)c1ccc(Br)cn1", "category": "NOT MET"}
{"compound": "COc1cccc2cc(-c3nc([C@H]4CC[C@H](C(=O)O)CC4)n4ncnc(N)c34)[nH]c12 [OSI-027]", "category": "NOT MET"}

## Task Check the entry Cc1cc(C)c(S(=O)(=O)N(Cc2ccc(-c3cccc(S(C)(=O)=O)c3)cc2)Cc2ccc(C(F)(F)F)o2)c(C)c1 : does Population Mitochondria Different-Phenotype (%) equal or exceed 20%?
## Result NOT MET

## Task Same for C=CCn1c(=O)c2cnc(Nc3ccc(N4CCN(C)CC4)cc3)nc2n1-c1cccc(C(C)(C)O)n1 [ADAVOSERTIB]
## Result NOT MET
